Recorded In vitro neutralization IC50, one value per entry.
- STUDY TARGET: HIV-1 Env of strain SC422661.8 (HIV-1)
Write the answer as a number in µg/mL, unit excluded.

BINDER | MEASURED PARAMETER | UNITS TEXT | REPORTED VALUE
12A12 IgG (wild type) (antibody, V domains shown) VH: SQHLVQSGTQVKKPGASVRISCQASGYSFTDYVLHWWRQAPGQGLEWMGWIKPVYGARNYARRFQGRINFDRDIYREIAFMDLSGLRSDDTALYFCARDGSGDDTSWHLDPWGQGTLVIVSA VL: DIQMTQSPSSLSASVGDRVTITCQAGQGIGSSLQWYQQKPGKAPKLLVHGASNLHRGVPSRFSGSGFHTTFSLTISGLQRDDFATYFCAVLEFFGPGTKVEIKR | In vitro neutralization IC50 | µg/mL | 0.2
3BNC55 IgG (wild type) (antibody, V domains shown) VH: QVQLVQSGTAVKRPGASVRVSCQASGYTFTDYFIYWWRQAPGQGLEWLGWINPLTSQPSYPSRFQGRLTLTRDTFDEMLYMDLRGLRSDDTGIYFCARRHSDYCDFDIWGSGTQIIVSS VL: DIQMTQSPSSLSASVGDKVTITCQTSAGYLNWYQQRRGRAPKLLMYDGSRLVTGVPSRFSGRRWGTQYNLTIGSLQPEDIATYYCQVYEFFGPGTRLDLKS | In vitro neutralization IC50 | µg/mL | 0.3
3BNC60 IgG (wild type) (antibody) heavy: QVHLSQSGAAVTKPGASVRVSCEASGYKISDHFIHWWRQAPGQGLQWVGWINPKTGQPNNPRQFQGRVSLTRQASWDFDTYSFYMDLKAVRSDDTAIYFCARQRSDFWDFDVWGSGTQVTVSS light: DIQMTQSPSSLSARVGDTVTITCQANGYLNWYQQRRGKAPKLLIYDGSKLERGVPARFSGRRWGQEYNLTINNLQPEDVATYFCQVYEFIVPGTRLDLKRTVA | In vitro neutralization IC50 | µg/mL | 0.1

Let's switch to this binder now.
For 3BNC117 IgG (wild type) (antibody) heavy: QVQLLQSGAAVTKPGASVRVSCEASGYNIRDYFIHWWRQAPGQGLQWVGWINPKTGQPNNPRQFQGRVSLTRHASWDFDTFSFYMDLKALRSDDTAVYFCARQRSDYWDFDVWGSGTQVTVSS light: DIQMTQSPSSLSASVGDTVTITCQANGYLNWYQQRRGKAPKLLIYDGSKLERGVPSRFSGRRWGQEYNLTINNLQPEDIATYFCQVYEFVVPGTRLDLKRTVA , what is its reported In vitro neutralization IC50?
0.07
